Recorded values, source patent US20160031986A1.

molecular target: cynomolgus monkey DLL4 extracellular domain (cynomolgus monkey); test: binding ELISA
EC50 overview
# number only, unit nM dropped from output

Binder | Value
1A11 chimeric antibody (antibody, V domains shown) VH: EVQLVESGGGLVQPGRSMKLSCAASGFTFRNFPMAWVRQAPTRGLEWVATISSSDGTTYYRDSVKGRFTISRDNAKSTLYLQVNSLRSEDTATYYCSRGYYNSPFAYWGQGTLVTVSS VL: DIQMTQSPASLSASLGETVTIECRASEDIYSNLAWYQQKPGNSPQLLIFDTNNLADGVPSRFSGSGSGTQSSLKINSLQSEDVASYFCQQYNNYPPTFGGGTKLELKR | 0.33

# input Which EC50 is reported for this binder? h1A11.12 (antibody, V domains shown) VH: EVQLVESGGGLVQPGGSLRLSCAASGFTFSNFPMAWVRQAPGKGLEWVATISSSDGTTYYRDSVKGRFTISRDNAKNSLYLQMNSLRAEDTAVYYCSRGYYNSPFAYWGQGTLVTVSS VL: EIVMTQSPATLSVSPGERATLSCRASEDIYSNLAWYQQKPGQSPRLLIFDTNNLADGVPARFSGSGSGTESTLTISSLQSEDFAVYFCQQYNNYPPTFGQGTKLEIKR
# output 0.16
